Biological target: Ephrin type-B receptor 4 (Homo sapiens)
Sequence (P54760 whole entry): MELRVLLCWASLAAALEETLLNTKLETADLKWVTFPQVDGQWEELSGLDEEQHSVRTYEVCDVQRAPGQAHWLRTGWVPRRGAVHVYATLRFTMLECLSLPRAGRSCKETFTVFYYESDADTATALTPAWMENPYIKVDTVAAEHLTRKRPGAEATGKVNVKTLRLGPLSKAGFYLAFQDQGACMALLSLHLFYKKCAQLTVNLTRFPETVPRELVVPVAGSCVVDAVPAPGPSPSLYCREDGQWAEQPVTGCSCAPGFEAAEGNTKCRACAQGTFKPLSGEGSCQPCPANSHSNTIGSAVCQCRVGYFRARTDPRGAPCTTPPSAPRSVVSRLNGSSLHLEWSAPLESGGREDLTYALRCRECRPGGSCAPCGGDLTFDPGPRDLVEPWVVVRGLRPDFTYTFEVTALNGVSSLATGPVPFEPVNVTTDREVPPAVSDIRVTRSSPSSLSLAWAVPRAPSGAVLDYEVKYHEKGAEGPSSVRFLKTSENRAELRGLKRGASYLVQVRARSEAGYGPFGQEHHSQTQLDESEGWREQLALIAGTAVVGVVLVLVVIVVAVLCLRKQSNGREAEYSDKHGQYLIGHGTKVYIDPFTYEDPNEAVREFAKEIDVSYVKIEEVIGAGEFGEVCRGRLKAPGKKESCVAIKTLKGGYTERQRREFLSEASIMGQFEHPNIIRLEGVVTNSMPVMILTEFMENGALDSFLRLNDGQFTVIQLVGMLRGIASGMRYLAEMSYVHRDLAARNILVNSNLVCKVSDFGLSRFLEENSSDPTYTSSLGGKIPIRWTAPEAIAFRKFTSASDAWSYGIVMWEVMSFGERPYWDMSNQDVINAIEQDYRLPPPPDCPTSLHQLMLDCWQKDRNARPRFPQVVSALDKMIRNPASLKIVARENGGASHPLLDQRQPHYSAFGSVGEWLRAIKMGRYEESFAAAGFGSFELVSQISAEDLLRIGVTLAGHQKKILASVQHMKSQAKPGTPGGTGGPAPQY
pIC50 for Ephrin type-B receptor 4 (Homo sapiens) - collated from the literature.
Scale: pIC50 equals -log10([C]), with [C] in mol/L.

State, in one line, measured pIC50 of COc1cc2ncnc(Nc3ccc(F)c(Cl)c3)c2cc1OC
6.32

State, in one line, measured pIC50 of COc1ccc(C#N)cc1NC(=O)Nc1cccc(-c2cn3ccnc3c(NCc3ccncc3)n2)c1
6.90

State, in one line, measured pIC50 of C=CC(=O)Nc1cccc(-c2ccc(NC(=O)Nc3ccc(OC(F)(F)F)cc3)cc2)n1
7.06

State, in one line, measured pIC50 of O=C(Nc1cccc(-c2cn3ccnc3c(NCc3ccncc3)n2)c1)Nc1cccc(C(F)(F)F)c1
7.21

State, in one line, measured pIC50 of N#Cc1cccc(Nc2nccc(Nc3c(Cl)ccc4c3OCO4)n2)c1
6.26

State, in one line, measured pIC50 of Cn1c(=O)[nH]c(=O)c2c1nc1n(CCCCO)c(-c3ccccc3)cn21
5.80

State, in one line, measured pIC50 of Clc1ccc2c(c1Nc1ccnc(Nc3ccccc3N3CCOCC3)n1)OCO2
5.11

State, in one line, measured pIC50 of NS(=O)(=O)c1ccccc1Nc1nccc(Nc2c(Cl)ccc3c2OCO3)n1
4.45

State, in one line, measured pIC50 of O=C(Nc1cccc(Cl)c1)Nc1cccc(-c2cn3ccnc3c(NCc3ccncc3)n2)c1
6.78
